# system-name: human recombinant dopamine D2L receptor (Homo sapiens)
# Construct: expressed in transfected cells; host or cells: CHO cells
# Sequence (P14416 whole entry): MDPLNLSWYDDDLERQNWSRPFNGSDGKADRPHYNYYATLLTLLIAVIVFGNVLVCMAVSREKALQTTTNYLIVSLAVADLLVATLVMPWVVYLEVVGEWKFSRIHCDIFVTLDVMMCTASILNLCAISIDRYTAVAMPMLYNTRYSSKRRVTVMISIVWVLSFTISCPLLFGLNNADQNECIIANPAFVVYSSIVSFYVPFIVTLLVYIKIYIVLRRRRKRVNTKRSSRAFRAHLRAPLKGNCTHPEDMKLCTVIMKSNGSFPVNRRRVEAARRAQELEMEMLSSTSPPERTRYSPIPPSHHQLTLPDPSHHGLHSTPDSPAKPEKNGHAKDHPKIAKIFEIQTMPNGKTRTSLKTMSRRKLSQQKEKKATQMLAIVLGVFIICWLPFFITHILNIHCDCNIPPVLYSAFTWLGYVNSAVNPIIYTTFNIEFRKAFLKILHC
# experiment: Dopamine D2L radioligand binding ([3H]Spiperone)
# setup-conditions: compound at 1 μM; CHO cells; read-out: Dopamine (1 μM) D2L, percent inhibition of specific binding
For each entry below, report its inhibition at 1 µM value.
Respond numerically; units are % and should not be typed.

The compound listed as Cc1ccc2c(c1)c1c(n2C2CCCCC2O)CCN(C)C1 (stereo not shown) has a reported inhibition at 1 µM of -3

// recorded inhibition at 1 µM for CN1CCc2c(c3cc(Cl)ccc3n2CCC(=O)OC2CCCC2)C1 : 35

compound Cc1ccc2c(c1)c1c(n2CC(=O)NCC2CCCCC2)CCN(C)C1 , inhibition at 1 µM observed: -4

// field: inhibition at 1 µM; key: Cc1ccc2c(c1)c1c(n2CCC#N)CCN(C)C1 ; value = 3

Item: CCOC(=O)CCn1c2c(c3cc(Cl)ccc31)CN(C)CC2 | inhibition at 1 µM: 22

Entry Cc1ccc2c(c1)c1c(n2CCC(=O)NCc2ccccc2)CCN(C)C1 , inhibition at 1 µM reported as 4

Entry Cc1ccc2c(c1)c1c(n2CCO)CCN(C)C1 — recorded inhibition at 1 µM = -8

Just so you know, measured inhibition at 1 µM for Cc1ccc2c(c1)c1c(n2CC(=O)O)CCN(C)C1 came out at 2

Entry CC(C)OC(=O)Cn1c2c(c3cc(Cl)ccc31)CN(C)CC2 ; inhibition at 1 µM = 10

Form: compound = Cc1ccc2c(c1)c1c(n2CCC(=O)Nc2ccccc2)CCN(C)C1 ; inhibition at 1 µM = 2

// recorded inhibition at 1 µM for CCCCOC(=O)Cn1c2c(c3cc(Cl)ccc31)CN(C)CC2 : 22

Record CN1CCc2c(c3cc(Cl)ccc3n2CC(=O)NC2CCCCC2)C1 , field inhibition at 1 µM: 18

The reported inhibition at 1 µM of the compound CN1CCc2c(c3cc(Cl)ccc3n2CC(N)=O)C1 was 7

Note to self: inhibition at 1 µM recorded for CN1CCc2c(c3cc(Cl)ccc3n2CCCO)C1 was 10

For CN1CCc2c(c3cc(Cl)ccc3n2CCC(=O)N(C)C)C1 the compound record lists inhibition at 1 µM as 9

Field inhibition at 1 µM (entry Cc1ccc2c(c1)c1c(n2CCC(=O)NC(C)(C)C)CCN(C)C1 ) reads -1

----------
# system-name: human recombinant serotonin (5-Hydroxytryptamine) 5-HT2B receptor (Homo sapiens)
# Construct: expressed in transfected cells; host or cells: CHO-K1 cells
# Sequence (P41595 whole entry): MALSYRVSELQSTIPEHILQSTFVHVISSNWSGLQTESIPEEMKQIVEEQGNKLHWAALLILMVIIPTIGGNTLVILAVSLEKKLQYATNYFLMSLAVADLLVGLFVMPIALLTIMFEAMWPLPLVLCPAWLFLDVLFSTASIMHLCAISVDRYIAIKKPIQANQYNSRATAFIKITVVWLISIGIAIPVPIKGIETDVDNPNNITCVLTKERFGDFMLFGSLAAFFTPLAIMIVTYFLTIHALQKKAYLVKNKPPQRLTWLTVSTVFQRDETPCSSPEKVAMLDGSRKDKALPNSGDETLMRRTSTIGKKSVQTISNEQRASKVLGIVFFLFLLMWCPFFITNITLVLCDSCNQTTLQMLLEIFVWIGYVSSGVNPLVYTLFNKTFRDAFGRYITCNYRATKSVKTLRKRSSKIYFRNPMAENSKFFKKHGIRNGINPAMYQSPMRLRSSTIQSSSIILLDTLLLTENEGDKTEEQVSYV
# experiment: Serotonin 5-HT2B radioligand binding ([3H]LSD)
# setup-conditions: compound at 1 μM; CHO-K1 cells; read-out: Serotonin (1 μM) 5-HT2B, percent inhibition of specific binding
So I've got a bunch of molecules here, and I need their inhibition at 1 µM values.
A number alone suffices; assume %.

// returns inhibition at 1 µM for C#CCn1c2c(c3cc(C)ccc31)CN(C)CC2 with human recombinant serotonin (5-Hydroxytryptamine) 5-HT2B receptor (Homo sapiens); value = 94

Summary: Cc1ccc2c(c1)c1c(n2CCC(=O)NC2CCCCC2)CCN(C)C1 , human recombinant serotonin (5-Hydroxytryptamine) 5-HT2B receptor (Homo sapiens), inhibition at 1 µM = 21

Lab note: molecule Cc1ccc2c(c1)c1c(n2CC#N)CCN(C)C1 tested on human recombinant serotonin (5-Hydroxytryptamine) 5-HT2B receptor (Homo sapiens); recorded inhibition at 1 µM was 43

Per the reported human recombinant serotonin (5-Hydroxytryptamine) 5-HT2B receptor (Homo sapiens) data, CCOC(=O)CCn1c2c(c3cc(C)ccc31)CN(C)CC2 has inhibition at 1 µM of 54

Record for CCOC(=O)CCCn1c2c(c3cc(C)ccc31)CN(C)CC2 under target or system human recombinant serotonin (5-Hydroxytryptamine) 5-HT2B receptor (Homo sapiens): inhibition at 1 µM reported as 77

human recombinant serotonin (5-Hydroxytryptamine) 5-HT2B receptor (Homo sapiens) assay, molecule CCNC(=O)CCCn1c2c(c3cc(C)ccc31)CN(C)CC2 , recorded inhibition at 1 µM = 21

inhibition at 1 µM on human recombinant serotonin (5-Hydroxytryptamine) 5-HT2B receptor (Homo sapiens) for Cc1ccc2c(c1)c1c(n2CCNC(=O)C2CCCNC2)CCN(C)C1 (centres unmarked) is -5

Entry CCNC(=O)CCn1c2c(c3cc(C)ccc31)CN(C)CC2 ; assay system human recombinant serotonin (5-Hydroxytryptamine) 5-HT2B receptor (Homo sapiens); inhibition at 1 µM recorded at 20

Simply: Cc1ccc2c(c1)c1c(n2CCNC(=O)OCC(Cl)(Cl)Cl)CCN(C)C1 , human recombinant serotonin (5-Hydroxytryptamine) 5-HT2B receptor (Homo sapiens), inhibition at 1 µM = 64

Item CNC(=O)CCn1c2c(c3cc(C)ccc31)CN(C)CC2 was tested on human recombinant serotonin (5-Hydroxytryptamine) 5-HT2B receptor (Homo sapiens); the reported inhibition at 1 µM is 23

Here Cc1ccc2c(c1)c1c(n2CCC(=O)NC2CCCC2)CCN(C)C1 was tested on human recombinant serotonin (5-Hydroxytryptamine) 5-HT2B receptor (Homo sapiens), and its inhibition at 1 µM came to 40

----------
Hi there, I'd appreciate the recorded inhibition at 1 µM for every entry that follows.
# system-name: human recombinant adrenergic α2B receptor (Homo sapiens)
# Construct: expressed in transfected cells; host or cells: CHO-K1 cells
# Sequence (P18089 1-450): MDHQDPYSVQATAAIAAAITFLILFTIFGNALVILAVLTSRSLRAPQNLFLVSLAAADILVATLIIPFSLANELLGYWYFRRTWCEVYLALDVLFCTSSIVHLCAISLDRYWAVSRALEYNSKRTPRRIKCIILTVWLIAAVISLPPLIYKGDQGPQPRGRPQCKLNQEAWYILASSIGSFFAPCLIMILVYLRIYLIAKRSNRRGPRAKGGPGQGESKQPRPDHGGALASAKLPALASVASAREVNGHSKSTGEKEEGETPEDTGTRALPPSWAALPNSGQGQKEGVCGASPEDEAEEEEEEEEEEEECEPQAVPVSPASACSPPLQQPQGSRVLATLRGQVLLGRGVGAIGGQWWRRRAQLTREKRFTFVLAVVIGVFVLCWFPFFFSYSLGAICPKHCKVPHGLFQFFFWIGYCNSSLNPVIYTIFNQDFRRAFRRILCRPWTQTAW
# experiment: Adrenergic α2B radioligand binding ([3H]Rauwolscine)
# setup-conditions: compound at 1 μM; CHO-K1 cells; read-out: Adrenergic (1 μM) α2B, percent inhibition of specific binding
Numbers only; they are read as %.

For Cc1ccc2c(c1)c1c(n2CCC(=O)Nc2ccc(F)cc2)CCN(C)C1 [Compound 47] the compound record lists inhibition at 1 µM as 96

Per the record, CCNC(=O)CCn1c2c(c3cc(C)ccc31)CN(C)CC2 [Compound 2] has inhibition at 1 µM of 55

Data point: Cc1ccc2c(c1)c1c(n2CCBr)CCN(C)C1 [CD91] ; inhibition at 1 µM = 102

# compound Cc1ccc2c(c1)c1c(n2CCC(=O)NC(C)(C)C)CCN(C)C1 [Compound 28] ; its inhibition at 1 µM = 85

Form field inhibition at 1 µM, entry CN1CCc2c(c3cc(Cl)ccc3n2CC(N)=O)C1 [Compound 45] : 18

// field: inhibition at 1 µM; key: CN1CCc2c(c3cc(Cl)ccc3n2CC(=O)NC2CCCC2)C1 [Compound 27] ; value = 35

The compound listed as Cc1ccc2c(c1)c1c(n2CC(N)=O)CCN(C)C1 [Compound 64] has a reported inhibition at 1 µM of 40

The compound Cc1ccc2c(c1)c1c(n2CCNC(=O)C2CCNCC2)CCN(C)C1 [Compound 65] showed inhibition at 1 µM equal to 12

Just so you know, measured inhibition at 1 µM for Cc1ccc2c(c1)c1c(n2CC(=O)NCc2ccccc2)CCN(C)C1 [Compound 25] came out at 38

The reported inhibition at 1 µM of the compound CC(C)OC(=O)Cn1c2c(c3cc(Cl)ccc31)CN(C)CC2 [Compound 11] was 69

----------
# system-name: human recombinant serotonin (5-Hydroxytryptamine) 5-HT6 receptor (Homo sapiens, UniProt P50406)
# Construct: expressed in transfected cells; host or cells: human HeLa cells
# Sequence (P50406 whole entry): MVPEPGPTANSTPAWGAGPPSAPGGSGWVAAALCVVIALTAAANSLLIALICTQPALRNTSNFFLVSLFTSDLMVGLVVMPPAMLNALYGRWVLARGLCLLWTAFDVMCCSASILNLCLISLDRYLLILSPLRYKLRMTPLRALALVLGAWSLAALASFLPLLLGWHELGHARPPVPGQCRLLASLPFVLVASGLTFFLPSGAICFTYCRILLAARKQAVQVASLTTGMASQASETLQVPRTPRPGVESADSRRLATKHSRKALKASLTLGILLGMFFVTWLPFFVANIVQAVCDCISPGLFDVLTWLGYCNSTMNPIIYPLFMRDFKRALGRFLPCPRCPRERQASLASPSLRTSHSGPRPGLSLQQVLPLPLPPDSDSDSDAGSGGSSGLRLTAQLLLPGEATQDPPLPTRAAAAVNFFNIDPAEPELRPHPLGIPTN
# experiment: Serotonin 5-HT6 radioligand binding ([3H]LSD)
# setup-conditions: compound at 1 μM; HeLa cells; read-out: Serotonin (1 μM) 5-HT6, percent inhibition of specific binding
Note to self: values exactly at 20% are t. So inhibition at 1 µM at or above 20% is t, below is f.

Prompt: Tell me whether inhibition at 1 µM is at least 20% here: CN1CCc2c(c3cc(Cl)ccc3n2CC(N)=O)C1
Response: f

Prompt: State whether the measured inhibition at 1 µM reaches 20%, counting equality as reaching it, for Cc1ccc2c(c1)c1c(n2CCC(N)=O)CCN(C)C1
Response: f

Prompt: Decide: is the reported value of inhibition at 1 µM for C#CCn1c2c(c3cc(C)ccc31)CN(C)CC2 equal to or greater than 20%?
Response: t

Prompt: For this compound, is measured inhibition at 1 µM 20% or higher? Cc1ccc2c(c1)c1c(n2C2CCCCC2O)CCN(C)C1 (centres unmarked)
Response: f

Prompt: Tell me whether inhibition at 1 µM is at least 20% here: Cc1ccc2c(c1)c1c(n2CCC(=O)NC2CCCC2)CCN(C)C1
Response: t

Prompt: # bool: inhibition at 1 µM of Cc1ccc2c(c1)c1c(n2CCNC(=O)C2CCCC2)CCN(C)C1 >= 20%
Response: f

Prompt: Determine whether this compound has inhibition at 1 µM no lower than 20%: CN1CCc2c(c3cc(Cl)ccc3n2CC(=O)NC2CCCC2)C1
Response: f

Prompt: Reported inhibition at 1 µM reaches at least 20% for CN1CCc2c(c3cc(Cl)ccc3n2CCC(=O)OCC2CCCCC2)C1 ?
Response: t

Prompt: Could you please find out whether CCOC(=O)Cn1c2c(c3cc(Cl)ccc31)CN(C)CC2 has inhibition at 1 µM that meets 20% or exceeds it?
Response: t

Prompt: Quick check, inhibition at 1 µM >= 20%? Cc1ccc2c(c1)c1c(n2CCC(=O)NCC2CCCCC2)CCN(C)C1
Response: f

Prompt: Assess whether reported inhibition at 1 µM for CN1CCc2c(c3cc(Cl)ccc3n2CC(=O)OC2CCCC2)C1 sits at 20% or higher.
Response: t

Prompt: I'd appreciate it if you could say whether Cc1ccc2c(c1)c1c(n2CCC#N)CCN(C)C1 has inhibition at 1 µM at least equal to 20%.
Response: t

Prompt: Confirm if inhibition at 1 µM reported for the compound Cc1ccc2c(c1)c1c(n2CC(=O)NCC2CCCCC2)CCN(C)C1 is 20% or above.
Response: t

Prompt: Can CN1CCc2c(c3cc(Cl)ccc3n2CCC(=O)N(C)C)C1 be said to have inhibition at 1 µM at or above 20%?
Response: t

Prompt: For this compound, is measured inhibition at 1 µM 20% or higher? Cc1ccc2c(c1)c1c(n2CC(=O)Nc2ccc(F)cc2)CCN(C)C1
Response: t

Prompt: # bool: inhibition at 1 µM of CN1CCc2c(c3cc(Cl)ccc3n2CC(=O)OCc2ccccc2)C1 >= 20%
Response: t

Prompt: Could you tell me if the measured inhibition at 1 µM of CN1CCc2c(c3cc(Cl)ccc3n2CC(=O)OC(C)(C)C)C1 reaches 20% or more?
Response: t

Prompt: I'd appreciate it if you could say whether Cc1ccc2c(c1)c1c(n2CCC(=O)NCc2ccccc2)CCN(C)C1 has inhibition at 1 µM at least equal to 20%.
Response: t

Prompt: Textbook exercise: given the entry CN1CCc2c(c3cc(Cl)ccc3n2CCC#N)C1 , state whether its inhibition at 1 µM is greater than or equal to 20%.
Response: t

Prompt: Given Cc1ccc2c(c1)c1c(n2CCC(=O)NC(C)(C)C)CCN(C)C1 , state whether its inhibition at 1 µM is at least 20%.
Response: t
